assay.name: solvent given as SMILES
condition.info: in CN(C)C=O
assay.endpoint: log10 fluorescence lifetime (log10 of the value in ns)

- COc1ccc(-c2cc(C)nc(-c3ccc(-n4c5ccccc5c5ccccc54)cc3)n2)cc1: 0.73
- O=C(O)c1ccc(C(=O)O)c2cc3ccccc3cc12: 1.10
- COc1cc(OC)cc(-c2ccc(-c3ccc(C#N)s3)s2)c1: -0.55
- O=C1NC(=O)c2c1c1c3ccccc3[nH]c1c1[nH]c3ccccc3c21: 1.11
- CCOC(=O)CN(CC(=O)OCC)c1ccc(-c2cc(-c3ccncc3)nc(-c3ccncc3)c2)cc1: 0.80
- COc1cc2c(cc1/C=C/C1=CC(=C(C#N)C#N)CC(C)(C)C1)c1ccccc1n2C: 0.96
- N#C[Se]CCCCCOc1ccc2ccc(=O)oc2c1: 0.01
- CCCCCCOc1ccc(N(c2ccc(OCCCCCC)cc2)c2ccc(-c3sc(-c4ccc(N(c5ccc(OCCCCCC)cc5)c5ccc(OCCCCCC)cc5)cc4)c4nc(CC)c(CC)nc34)cc2)cc1: -0.04
- CN(C)c1ccc2nc(/C=C/c3cc4c5c(c3)CCCN5CCC4)c(=O)oc2c1: -0.74
- CCOC(=O)c1ccccc1-c1c2ccc(=[N+](CC)CC)cc-2oc2cc(N(CC)CC)ccc12: 0.33
- CSc1sc(C(C)=O)c2nn[nH]c(=O)c12: -0.60
- COc1ccc(-c2nc(C)cc(-c3ccc(-n4c5ccccc5c5ccccc54)cc3)n2)cc1: 0.81
- COC(=O)C(Cc1ccc2oc(-c3ccc(N(C)c4ccccc4)cc3)nc2c1)NC(=O)OC(C)(C)C (centres undefined): 0.71
- O=C([O-])c1ccc(C(=O)[O-])c2cc3ccccc3cc12: 0.00
- CCCCCCC(CCCCCC)N1C(=O)c2cccc3c(-c4ccc(-c5ccc(OC)cc5)cc4)ccc(c23)C1=O: 0.28
- CCN1\C(=C/C=C/C=C/C2=[N+](CC)c3ccc4ccccc4c3C2(C)C)C(C)(C)c2c1ccc1ccccc21: 0.08
- c1ccc2c(c1)[nH]c1c3[nH]c4ccccc4c3c3nsnc3c21: 0.11
- CN(C)c1ccc(/C=C2\CC/C(=C\c3ccc(C#N)cc3)C2=O)cc1: -0.74
- c1ccc(-c2nn(-c3ccccc3)c3nc4ccc(N(c5ccccc5)c5cccc6ccccc56)cc4cc23)cc1: 1.20

----------
assay.name: solvent given as SMILES
condition.info: in CC1CCCCC1
Outcome: 1.0 for fluorescence lifetime of at least 1 ns; 0.0 for anything lower.

• COC(=O)C(NC(=O)OC(C)(C)C)c1ccc2oc(-c3cc(OC)c(OC)cc3OC)nc2c1 (configuration not stated) = 1.0
• CCN(CC)c1ccc2cc(-c3nc4ccccc4s3)c(=O)oc2c1 = 1.0
• c12c3c4c5c1c1c6c7c2c2c8c3c3c9c4c4c%10c5c5c1c1c6c6c%11c%12c%13c%14c%15c%16c%17c%14c%14c%18c%13c%11c1c1c5c%10c5c(c%14c%10c%17c%11c%13c%16c%14c%16c%15c%12c%12c%16c(c2c7c%126)c2c8c3c(c%13c%142)c2c9c4c5c%10c%112)c%181 = 0.0
• C(=C\c1c2ccccc2cc2ccccc12)/c1cnc2ccccc2c1 = 1.0
• CC(C)(C)c1cc2c3cc(C(C)(C)C)c(-c4cc5cc6c7cccc8cccc(c9cc(C(C)(C)C)cc(c5cc4C(C)(C)C)c96)c87)cc3cc3c4cccc5cccc(c(c1)c23)c54 = 1.0
• CCNc1ccc2c(C(F)(F)F)cc(=O)oc2c1 = 1.0

----------
assay.name: solvent given as SMILES
condition.info: in CCOC(C)=O
fluorescence lifetime strictly less than 2 ns = T. Otherwise F.

* O=C1CCCc2c1[nH]c1cc3c(cc21)OCO3 | T
* CCCCCCCCN1c2ccccc2Sc2cc(/C=C/c3ccc(N(c4ccc(/C=C/c5ccc6c(c5)Sc5ccccc5N6CCCCCCCC)cc4)c4ccc(/C=C/c5ccc(/C=C/c6ccc(N(c7ccc(/C=C/c8ccc9c(c8)Sc8ccccc8N9CCCCCCCC)cc7)c7ccc(/C=C/c8ccc9c(c8)Sc8ccccc8N9CCCCCCCC)cc7)cc6)c6nsnc56)cc4)cc3)ccc21 | T
* CCCCCCCCN1c2ccccc2Sc2cc(/C=C/c3ccc(N(c4ccc(/C=C/c5ccc6c(c5)Sc5ccccc5N6CCCCCCCC)cc4)c4ccc(/C=C/c5ccc(/C=C/c6ccc(N(c7ccc(/C=C/c8ccc(N(c9ccccc9)c9ccccc9)cc8)cc7)c7ccc(/C=C/c8ccc(N(c9ccccc9)c9ccccc9)cc8)cc7)cc6)c6nsnc56)cc4)cc3)ccc21 | T
* O=C1NC(=O)c2c1c1c3ccccc3[nH]c1c1[nH]c3ccccc3c21 | F
* COc1ccc2cc3c(C)cc(=O)oc3cc2c1 | T
* COc1ccc(-c2nc(C(C)=O)c(C)o2)cc1 | F
* CN(C)c1ccc(/C=C/C(=C(C#N)C#N)c2ccc3c4c(cccc24)CC3)cc1 | F

----------
Reported fluorescence lifetime is given for each of the following compounds.
assay.name: solvent given as SMILES
condition.info: in CC#N
assay.endpoint: fluorescence lifetime (ns)

• CC1=CC(/C=C/c2ccc(N(C)C)cc2)=[N+]2C1=C(c1ccc(C#CCO[C@@H]3O[C@H](CO)[C@@H](O)C(O)[C@H]3O)cc1)c1c(C)cc(/C=C/c3ccc(N(C)C)cc3)n1[B-]2(F)F (stereo partly drawn) = 2.3
• CC(C)(C)c1ccc2c(c1)c1cc(C(C)(C)C)ccc1n2-c1ccc(C#Cc2ccccc2)cc1 = 4.75
• c1ccc(N2c3ccc4ccccc4c3-c3c4ccccc4nc[n+]3[B-]2(c2ccccc2)c2ccccc2)cc1 = 0.21
• Cc1nc2c(c[n+]1C)CN1C(=O)N([C@H]3O[C@@H](CO)[C@H](O)[C@@H]3O)C=CC1=N2 = 3.61
• COc1ccc2c(c1)-c1ccccc1C2=O = 14
• CCN(CC)c1ccc(/N=N/c2nc3ccc([N+](=O)[O-])cc3s2)cc1 = 6.03
• CN1CCN(CCCN2c3ccccc3Sc3ccc(C(F)(F)F)cc32)CC1 = 2.68
• CCC1=C(C)C2=C(C)c3c(C)c(CC)c(C)n3[B-](F)(F)[N+]2=C1C = 5.96

----------
assay.name: solvent given as SMILES
condition.info: in ClCCl
// reported fluorescence lifetime per item
assay.endpoint: fluorescence lifetime (ns)

- COc1ccccc1-c1c(-c2ccccc2O)nc(-c2ccc(C(F)(F)F)cc2)n1-c1ccc(C)cc1: 3.82
- CCCCCCCCCCCCN1C(=O)c2c(c3ccc4cc(-c5ccc(C)cc5)c(OC)cc4c3c3c2ccc2cc(-c4ccc(C)cc4)c(OC)cc23)C1=O: 6.2
- COC(=O)c1[nH]c(-c2ccccc2)c2nnc3c4ccccc4oc3c12: 3.36
- CCCCCCn1c2ccccc2c2cc(-c3ccc(-c4cc(-c5ccccn5)nc(-c5ccccn5)c4)cc3)ccc21: 1.51
- CCc1c(C)[nH]c(C2=[N+]3C(=Cc4c(C)c(CC)c(C)n4[B-]3(F)F)c3ccccc32)c1C: 6.3
- Cc1cc(-c2cccc3ccccc23)cc(C)[o+]1: 13.4
- COc1c2ccccc2c(OC)c2c1c1ccc(C(F)(F)F)cc1n2C: 25.8
- C(#Cc1ccc(-n2c3ccccc3c3ccccc32)cc1)c1ccc(-c2nc(-c3ccc(C#Cc4ccc(-n5c6ccccc6c6ccccc65)cc4)cc3)nc(-c3ccc(C#Cc4ccc(-n5c6ccccc6c6ccccc65)cc4)cc3)n2)cc1: 4.16
- O=S1c2ccccc2-c2cc(-c3c4ccccc4cc4ccccc34)ccc21 (centres undefined): 3.3

----------
assay.name: solvent given as SMILES
condition.info: in c1ccncc1
Listed below: fluorescence lifetime values for each entry.
assay.endpoint: fluorescence lifetime (ns)

* COc1ccc2c3cccc4c(OC)ccc(c5cccc1c52)c43 | 4.02
* CCCCCCCC(=O)Oc1ccc2c3cccc4c(OC(=O)CCCCCCC)ccc(c5cccc1c52)c43 | 3.88
* NNC(=O)NNN1C(=O)c2cc(S(=O)(=O)[O-])cc3c(N)c(S(=O)(=O)[O-])cc(c23)C1=O | 6.3
* CN(C)c1ccc(/C=C2\CC/C(=C\c3ccc(C#N)cc3)C2=O)cc1 | 0.41
* CN(C)c1ccc(/C=C/C=C2\CC/C(=C\c3ccc(N(C)C)cc3)C2=O)cc1 | 1.26
* Cc1c2oc3c(C)c(N)cc(C(=O)NC4OC(=O)C(C(C)C)N(C)C(=O)CN(C)C(=O)C5CCCN5C(=O)C(C(C)C)NC4=O)c3nc-2c(C(=O)NC2OC(=O)C(C(C)C)N(C)C(=O)CN(C)C(=O)C3CCCN3C(=O)C(C(C)C)NC2=O)c(N)c1=O (configuration not stated) | 1.53
* CN(C)c1ccc(/C=C/C=C2\CC/C(=C\C=C\c3ccc(N(C)C)cc3)C2=O)cc1 | 1.17

----------
assay.name: solvent given as SMILES
condition.info: in ClCCl
Reported log10 fluorescence lifetime by item:
assay.endpoint: log10 fluorescence lifetime (log10 of the value in ns)

* Cc1ccc2ccc3cccc4ccc1c2c34 | 1.90
* COc1ccc(/C=C/C2=CC(/C=C/c3ccc(OC)cc3)=[O+][B-](F)(F)O2)cc1 | 0.11
* COc1ccc(C2=C(C)C3=C(c4c(-c5ccccn5)nc5ccccn45)c4c(C)c(-c5ccc(OC)cc5)c(C)n4[B-](F)(F)[N+]3=C2C)cc1 | 0.54
* CCCCCC(=O)c1c2c(c(C(=O)CCCCC)c3c1OC1(CCCC1)O3)OC1(CCCC1)O2 | 1.39
* CCCCCc1c(C(=O)c2ccc3c4c(cccc24)-c2cccc4c2C3CC=C4)c2ccc3cccc4c5cccc6ccc1c(c65)c2c34 (centres undefined) | 0.04
* CCN(CC)c1ccc(OC)c(C=O)c1 | 1.23
* COc1ccc(-c2nc3c(c4c2-c2ccccc2CC4)-c2ccccc2CC3)cc1 | -0.60
* COc1ccc(-c2cc(-c3ccc(C)cc3)nc3c(C#N)c(N4CCCC4)nc(N)c23)cc1 | 1.12
* CCCCNc1nc(/C=C/c2ccccc2)[n+]([O-])c2c1CCCC2 | 0.95
